Could you please report measured phosphorylation enrichment for the items listed next?
# MEASURED_TARGET: FGFR3 (UniProt P22607)
# Sequence (P22607 whole entry, looked up): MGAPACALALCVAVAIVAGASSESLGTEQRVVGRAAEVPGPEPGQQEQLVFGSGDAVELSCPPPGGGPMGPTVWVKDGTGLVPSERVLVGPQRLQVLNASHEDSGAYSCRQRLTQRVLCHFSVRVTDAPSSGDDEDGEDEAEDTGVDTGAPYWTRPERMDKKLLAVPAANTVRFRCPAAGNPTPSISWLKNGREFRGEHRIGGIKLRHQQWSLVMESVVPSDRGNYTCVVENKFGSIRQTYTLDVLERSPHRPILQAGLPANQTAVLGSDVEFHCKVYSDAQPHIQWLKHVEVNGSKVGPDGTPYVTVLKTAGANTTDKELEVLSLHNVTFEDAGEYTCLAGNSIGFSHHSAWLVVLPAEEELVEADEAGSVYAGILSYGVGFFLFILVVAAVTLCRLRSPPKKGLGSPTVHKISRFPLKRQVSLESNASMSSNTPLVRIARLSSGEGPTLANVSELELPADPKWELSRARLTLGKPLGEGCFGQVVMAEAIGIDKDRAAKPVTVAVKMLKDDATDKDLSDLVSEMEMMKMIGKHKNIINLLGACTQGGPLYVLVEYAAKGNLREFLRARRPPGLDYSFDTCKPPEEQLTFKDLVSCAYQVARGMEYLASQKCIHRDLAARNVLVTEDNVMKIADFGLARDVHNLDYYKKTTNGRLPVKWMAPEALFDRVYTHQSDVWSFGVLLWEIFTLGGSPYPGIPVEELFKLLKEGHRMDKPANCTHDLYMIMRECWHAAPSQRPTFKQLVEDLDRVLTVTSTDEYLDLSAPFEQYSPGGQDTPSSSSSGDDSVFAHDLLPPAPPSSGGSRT
# TEST_DESCRIPTION: phosphorylation enrichment, bacterial display (enrichment ratio); higher = better substrate or ligand; peptides without Tyr show the background
Numbers only.

Completed entries (count: 5):
PLQKTYNYNML [SLC4A1_Y553_V557M]	0.678
RSDSSYRMSAT [NHS_Y1532]	0.754
GSQERDFELVE [TSC2_Y407_Y407D]	0.717
EQDRAYLEGTC [HLA-C_Y183_L180D]	0.663
IMFTSYFLTIL [TAS2R16_Y239_V235M]	0.922

Next sequence, please.
Please report the measured phosphorylation enrichment for ETAENYLGYTA [HSPA9_Y181_H184Y]
0.784

----------
Could you please report measured SH2 binding enrichment for the items listed next?
# MEASURED_TARGET: SHP2-C SH2
# TEST_DESCRIPTION: SH2 binding enrichment of the phosphorylated peptide, bacterial display (enrichment ratio); higher = better substrate or ligand; peptides without Tyr show the background
Answers are plain numbers.

ACCLLYHGDVV [TUBA4A_Y319_R320H]	0.75
RICRRYCQVLN [IQCF1_Y144_R141C]	0.76
PVLSLYASGRT [ACTA1_Y145_A140P]	0.926

Please report the measured SH2 binding enrichment for GGSSPYSRRLP [CDK13_Y351]
0.609

----------
# MEASURED_TARGET: c-Src SH2
# TEST_DESCRIPTION: SH2 binding enrichment of the phosphorylated peptide, bacterial display (enrichment ratio); higher = better substrate or ligand; peptides without Tyr show the background
EXPERIMENTAL_READOUT: SH2 binding enrichment
Answers are plain numbers.

Completed entries (count: 4):
ACCLLYRGDVV [TUBA4A_Y319]	0.776
RVGNMYMRGLS [ABCG8_Y209_V210M]	1.01
LAARFYNWVSF [FLT4_Y1231_YF]	1.25
EASGIYVKSII [PATJ_Y396]	0.466

Next sequence, please.
Please report the measured SH2 binding enrichment for NSRYTYKLEVK [USH2A_Y3747]
0.644

----------
# Tested on: c-Abl (mouse)
# TEST_DESCRIPTION: phosphorylation enrichment, bacterial display (enrichment ratio); higher = better substrate or ligand; peptides without Tyr show the background
EXPERIMENTAL_READOUT: phosphorylation enrichment
One number for each entry.

AELKLYSGAQT [ZAP70_Y178_R175L]	0.526
HVKHNYECLVF [XRCC5_Y416_I412V_YF]	1.23
MANFVYKAGPS [MAML2_Y515_M514V_YF]	0.417

For every record below, what is its phosphorylation enrichment?
1. RHFTGCRIELQ [INSR_Y818_Y818C]
2. PPDGEYFTLQI [TP53_Y327_L323P]
3. VTPSEYLEIVR [TMEM130_Y412_E407V]
4. TKVTFYKQPMF [GBA_Y451_D448V]

0.665
2.33
0.681
0.588

----------
# MEASURED_TARGET: Jak2 (UniProt O60674)
# Sequence (O60674 whole entry, looked up): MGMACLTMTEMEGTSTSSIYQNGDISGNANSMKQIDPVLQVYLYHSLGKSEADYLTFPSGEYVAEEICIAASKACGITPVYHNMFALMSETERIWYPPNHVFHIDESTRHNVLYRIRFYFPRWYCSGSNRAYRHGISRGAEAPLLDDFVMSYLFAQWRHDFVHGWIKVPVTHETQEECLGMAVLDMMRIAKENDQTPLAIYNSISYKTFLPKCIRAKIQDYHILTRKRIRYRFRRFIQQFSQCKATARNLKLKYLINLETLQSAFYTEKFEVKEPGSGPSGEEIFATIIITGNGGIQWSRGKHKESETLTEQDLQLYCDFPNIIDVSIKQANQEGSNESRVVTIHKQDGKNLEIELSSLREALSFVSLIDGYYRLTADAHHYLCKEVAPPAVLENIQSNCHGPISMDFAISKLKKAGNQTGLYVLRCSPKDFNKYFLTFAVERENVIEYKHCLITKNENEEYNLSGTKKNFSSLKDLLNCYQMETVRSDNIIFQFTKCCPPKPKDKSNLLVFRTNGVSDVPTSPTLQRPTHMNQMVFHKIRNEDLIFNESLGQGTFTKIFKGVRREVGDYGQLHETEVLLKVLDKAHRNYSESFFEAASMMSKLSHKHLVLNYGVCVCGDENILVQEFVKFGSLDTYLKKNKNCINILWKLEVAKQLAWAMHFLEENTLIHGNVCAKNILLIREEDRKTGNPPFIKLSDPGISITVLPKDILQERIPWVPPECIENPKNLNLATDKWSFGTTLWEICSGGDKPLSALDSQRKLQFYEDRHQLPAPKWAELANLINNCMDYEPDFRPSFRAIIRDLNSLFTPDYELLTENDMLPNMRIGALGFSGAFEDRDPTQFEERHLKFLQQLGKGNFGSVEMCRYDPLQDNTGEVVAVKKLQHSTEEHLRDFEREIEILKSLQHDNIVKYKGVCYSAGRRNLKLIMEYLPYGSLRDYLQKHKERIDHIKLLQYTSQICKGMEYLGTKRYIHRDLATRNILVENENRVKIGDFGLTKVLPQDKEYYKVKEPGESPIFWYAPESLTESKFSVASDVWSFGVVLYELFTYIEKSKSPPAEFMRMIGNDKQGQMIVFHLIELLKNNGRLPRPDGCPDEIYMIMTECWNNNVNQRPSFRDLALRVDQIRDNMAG
# TEST_DESCRIPTION: phosphorylation enrichment, bacterial display (enrichment ratio); higher = better substrate or ligand; peptides without Tyr show the background
Please use condition met whenever phosphorylation enrichment is not below 0.7, and condition not met whenever it is.

Example entries begin here.
IMITDYLLLFR [INSR_Y87]	condition met
LLPNAYIFVVQ [L1CAM_Y418_A415P_YF]	condition met
KYLENYYDLEK [MMP3_Y41_K45E]	condition met
FPKAHYHWLVL [APTX_Y214_R213H_YF]	condition met
SSREGYVRHHN [FAM83B_Y433_S435R]	condition not met

Hi team, for ETEMLYGSARR [PRC1_Y464_P468R] , is the recorded phosphorylation enrichment at or above 0.7?
condition not met

Hi team, for SQSKGYRPKLY [SIPA1L3_Y1376_G1371S] , is the recorded phosphorylation enrichment at or above 0.7?
condition not met

Hi team, for FQCKHYACIRQ [TIMP3_Y182_S179C_YF] , is the recorded phosphorylation enrichment at or above 0.7?
condition not met

Hi team, for VFFGSYSCPFG [NKAP_Y104_R106C_YF] , is the recorded phosphorylation enrichment at or above 0.7?
condition met
